The reported measurements were obtained from PubChem BioAssay (NCI).

TGI by entry:
tested on: OVCAR-3 ovarian; test: NCI tumour cell line growth inhibition, 48 h

Exercise: GET /values?readout=TGI&system=OVCAR-3 ovarian&item= O=C(Nc1ccc(Cl)cc1Cl)c1ccc(NC2=C(Cl)C(=O)N(Cc3ccccc3)C2=O)cc1
Solution: 33.5 µM

Exercise: Next molecule up: NNC(=S)N/N=C(\CCCC(=O)NCCc1ccccc1)CC(=O)c1ccccc1
Solution: > 100 µM

Exercise: Next molecule up: O=C1Oc2ccccc2C(=O)/C1=C/N1C(=O)N/C(=C\c2ccccc2O)C1=O
Solution: > 100 µM

Exercise: Next molecule up: CCOc1ccc2nc(NC(=O)C(=O)C(C(=O)c3ccccc3-c3ccccc3)C3OC(=O)c4ccccc43)sc2c1 (stereo not given)
Solution: 89.8 µM

***
Exercise: GET /values?readout=TGI&system=OVCAR-3 ovarian&item= COC(=O)Cc1cc(OC)c(OC)cc1Br
Solution: > 100 µM

Exercise: Next molecule up: Clc1ccc(-c2ccc(-c3nnc(CCc4nnc(-c5ccc(-c6ccc(Cl)cc6)o5)o4)o3)o2)cc1
Solution: > 100 µM

Exercise: Next molecule up: CC[n+]1cnc(N)c2c(-c3ccc(Cl)cc3)cn(-c3ccc(C)cc3)c21
Solution: 21.6 µM

Exercise: Next molecule up: C1=C(c2ccccc2)CN(c2ccccc2)OC1
Solution: > 100 µM

Exercise: Next molecule up: Cc1nc2ccc(CN(C)c3ccc(C(=O)N[C@@H](CCC(=O)O)C(=O)O)s3)cc2c(=O)[nH]1
Solution: > 100 µM

Exercise: Next molecule up: C=CC(=O)Nc1ccc(Nc2nccc(-c3ccc(N4CCCC4)c(C#N)c3)n2)cc1
Solution: > 25 µM

====

tested on: MOLT-4 leukemia; assay: NCI tumour cell line growth inhibition, 48 h; in the data active = GI50 below about 0.43 µM; inactive = the rest
Could you please pick one outcome from this set? active, inactive

Exercise: // outcome(item) with item = COc1cc2c(/C=N\N=C(N)N)c(Cl)[nH]c2cc1C
Solution: inactive

Exercise: Next compound up: Cc1c2cnccc2c(C)c2c1c1cc(C3OCCCO3)ccc1n2C
Solution: active

Exercise: Next compound up: CC/C(Cc1ccccc1)=C(\c1ccc(OCCN2CCCCCC2)cc1)c1ccc(OC(=O)NCc2ccccc2)cc1
Solution: inactive

Exercise: Next compound up: COc1cc(C(=O)OCCCCCCCCCCC[P+](c2ccccc2)(c2ccccc2)c2ccccc2)ccc1O
Solution: inactive

Exercise: Next compound up: Cc1ccccc1NC(=S)Nc1ccccn1
Solution: inactive

====

tested on: DMS 273 small cell lung; test: NCI tumour cell line growth inhibition, 48 h
TGI by entry:

Exercise: Data request, read-out TGI, for COc1cc(CCc2cccnc2)cc(OC)c1OC
Solution: > 100 µM

Exercise: Next compound up: Nc1nc(CCC(=O)Nc2cccc(C(F)(F)F)c2)cc(-c2cccc3ccccc23)n1
Solution: > 100 µM

***
Exercise: Data request, read-out TGI, for O=C(O)CN(c1ccccc1)S(=O)(=O)c1ccc(NC(=O)c2ccccc2)cc1
Solution: > 100 µM

Exercise: Next compound up: CCC1(C)NN=c2s/c(=C/c3ccc(OC)cc3)c(=O)n2N1 (stereo not given)
Solution: > 100 µM

Exercise: Next compound up: COc1ccc(Cn2c(C)nc3c2C(=O)c2ccccc2C3=O)cc1
Solution: 19.7 µM

Exercise: Next compound up: O=C1c2ccccc2C2(O)Nc3cc(O)ccc3C12O (stereo not given)
Solution: > 100 µM

Exercise: Next compound up: CCOc1ccc2nc(NC(=O)C(=O)C(C(=O)c3ccccc3-c3ccccc3)C3OC(=O)c4ccccc43)sc2c1 (stereo not given)
Solution: > 100 µM

====

tested on: K-562 leukemia; test: NCI tumour cell line growth inhibition, 48 h
outcome measure: TGI

Exercise: Data request, read-out TGI, for COc1ccc(C#Cc2ccccc2C#CCCCCO)cc1
Solution: 43.9 µM

Exercise: Next compound up: Nc1nc2c(=O)c3ccccc3sc2s1
Solution: > 100 µM

Field: next compound
Exercise: Data request, read-out TGI, for CCOC(=O)c1cnc(-n2[nH]c(C)c(CCO)c2=O)[nH]c1=O
Solution: > 100 µM

====

TGI by entry:
test system: NCI-H522 lung; assay: NCI tumour cell line growth inhibition, 48 h

// worked examples, TGI included
Exercise: Data request, read-out TGI, for O=C1c2c(F)c(F)c(F)c(F)c2SC2=NCCN12
Solution: 10.1 µM

Exercise: Next compound up: CC1=NN(c2nc(N)nc(-c3ccccc3S(N)(=O)=O)n2)C(C)(C)C1
Solution: > 100 µM

Exercise: Next compound up: CC(C)(C)OC(=O)CN1CCNCCNCC1
Solution: > 100 µM

Exercise: Next compound up: Cc1[nH]ncc1-c1cc2nc(C3CC4CCN3CC4)[nH]c(=O)c2s1 (stereo unspecified)
Solution: 39.4 µM

***
Exercise: Data request, read-out TGI, for CC1=CCC[C@@]2(C)C(CC[C@@H]2C(C)/C=C/C(C)C)c2ccc(cc2C(=O)O)C[C@@H](O)CC1 (stereo partly specified)
Solution: 29.8 µM

Exercise: Next compound up: CCOc1ccc2nc(NC(=O)C(=O)C(C(=O)c3ccccc3-c3ccccc3)C3OC(=O)c4ccccc43)sc2c1 (stereo unspecified)
Solution: 32 µM

Exercise: Next compound up: CCC(C)CN1C(=O)NC(C)(Cc2ccccc2)C1=O (stereo unspecified)
Solution: > 100 µM

Exercise: Next compound up: C1=C\SS/C=C\SS/C=C\SS/C=C\SS/1
Solution: 84.4 µM

Exercise: Next compound up: CC(C)=CCN=C(N)N
Solution: > 100 µM

Exercise: Next compound up: COc1cc(/C(Cl)=C/C=C/C(=O)c2c(C)[n+]([O-])c3ccc(Cl)cc3[n+]2[O-])cc(OC)c1OC
Solution: 4.23 µM

Exercise: Next compound up: O=[N+]([O-])c1ccc(Nc2ccccc2-c2ccccc2)c2nonc12
Solution: 37.5 µM

Exercise: Next compound up: CN(C)c1ccc2c(c1)C(=O)N(OS(=O)(=O)c1ccc([N+](=O)[O-])cc1)C2=O
Solution: 30.5 µM

Exercise: Next compound up: C/C=C/[C@@]1(OC(=O)c2ccccc2)C[C@@H]2CCCC[C@@H]21
Solution: 29.9 µM

====

system: SNB-78 CNS; assay: NCI tumour cell line growth inhibition, 48 h
outcome measure: TGI

// worked examples, TGI included
Exercise: Data request, read-out TGI, for CC12CC3C(CC1SCC(=O)O2)C3(C)C (stereo not drawn)
Solution: > 100 µM

Exercise: Next compound up: CN(C)CC(/C(Cc1ccccc1)=N\NC(=O)C[n+]1ccccc1)c1ccccc1 (stereo not drawn)
Solution: > 100 µM

Exercise: Next compound up: CCCNC1CC(n2cc(C)c(=O)[nH]c2=O)OC1CO (stereo not drawn)
Solution: > 100 µM

Exercise: Next compound up: CCC[CH2][Sn]([CH2]CCC)([O]C(=O)c1c(F)cccc1F)[O]C(=O)c1c(F)cccc1F
Solution: 1.47 µM

Exercise: Next compound up: O=C(Nc1c(O)[nH]c(=S)[nH]c1=O)c1ccccn1
Solution: > 100 µM

Exercise: Next compound up: C=C1C(=O)OC2/C=C(\C)C(OC(C)=O)C3OC3C(C)(O)CC(OC(=O)/C(C)=C/C)C12 (stereo not drawn)
Solution: 30.5 µM

Exercise: Next compound up: O=C1OC(=O)c2c1c(-c1ccccc1)cn2-c1ccc(Cl)cc1
Solution: > 100 µM

Exercise: Next compound up: CC1=CCC[C@@]2(C)C(CC[C@@H]2C(C)/C=C/C(C)C)c2ccc(cc2C(=O)O)C[C@@H](O)CC1 (stereo partly drawn)
Solution: 34.5 µM

***
Exercise: Data request, read-out TGI, for N=C(c1ccccc1)N(c1ccccc1)c1ccccc1
Solution: > 100 µM

Exercise: Next compound up: CC1=C(C(=O)NCc2ccccc2)C(c2ccc(C3C(C(=O)NCc4ccccc4)=C(C)NC(C)=C3C(=O)NCc3ccccc3)cc2)C(C(=O)NCc2ccccc2)=C(C)N1
Solution: 27.1 µM

====

TGI by entry:
system: EKVX NSCLC; assay: NCI tumour cell line growth inhibition, 48 h

Exercise: GET /values?readout=TGI&system=EKVX NSCLC&item= O=C(NCCCCCCCCNC(=O)c1cnc2ccccc2n1)c1cnc2ccccc2n1
Solution: > 100 µM

Exercise: Next compound up: O=P([O-])(O)OP(=O)([O-])O.[NH-][C@H]1CCCC[C@@H]1[NH-].[OH-].[OH-].[Pt+4]
Solution: 68.3 µM

Exercise: Next compound up: CCOc1cc2c(cc1O)/C(=N\N)C[C@@H]1[C@@H]2CC[C@]2(C)[C@@H](O)CC[C@@H]12
Solution: > 100 µM

Exercise: Next compound up: N=C(c1ccccc1)N(c1ccccc1)c1ccccc1
Solution: > 100 µM

***
Exercise: GET /values?readout=TGI&system=EKVX NSCLC&item= C=C(CNC(=O)Nc1ccc(-c2ccccc2)cc1)c1ccc(C(=O)Nc2ccccc2N)cc1
Solution: > 100 µM
